B1: Kinesin-like protein KIF16B, residues 1213 to 1273; numbered along this chain, Q96L93 (parent)
chain: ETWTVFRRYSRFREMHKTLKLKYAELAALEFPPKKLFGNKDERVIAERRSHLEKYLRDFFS

# Variants of: B1
# measurement-description: abundance fitness (aPCA) (normalised: wild type 0, dead -1); higher = more abundant; growth selection in yeast, the domain comes from the species named
# stated-conditions: Homo sapiens

| sequence | abundance fitness |
| --- | --- |
| ETWTVFRRTSRFREMHKTLKLKYAELAALEFPPKKLFGNKDERVIAERRSHLEKYLRDFFS [Y9T] | -0.201 |
| ETWTVFRRYSRFREMHKTLKLKYAELAALEFPPKKLFNNKDERVIAERRSHLEKYLRDFFS [G38N] | -0.195 |
| ETWTVFRRYSRFREMHKTLKLKYAELAALEFPPKKLFGNKDERVIAERRSHAEKYLRDFFS [L52A] | -0.201 |
